testedSystem: T1, biotin-labeled human CD137 fused to human IgG1 Fc fragment (human, biotin-labeled)
T1 construct: also called human CD137-Fc; biotin-human CD137-Fc
T1 sequence (chain, as listed by the source limits assumed): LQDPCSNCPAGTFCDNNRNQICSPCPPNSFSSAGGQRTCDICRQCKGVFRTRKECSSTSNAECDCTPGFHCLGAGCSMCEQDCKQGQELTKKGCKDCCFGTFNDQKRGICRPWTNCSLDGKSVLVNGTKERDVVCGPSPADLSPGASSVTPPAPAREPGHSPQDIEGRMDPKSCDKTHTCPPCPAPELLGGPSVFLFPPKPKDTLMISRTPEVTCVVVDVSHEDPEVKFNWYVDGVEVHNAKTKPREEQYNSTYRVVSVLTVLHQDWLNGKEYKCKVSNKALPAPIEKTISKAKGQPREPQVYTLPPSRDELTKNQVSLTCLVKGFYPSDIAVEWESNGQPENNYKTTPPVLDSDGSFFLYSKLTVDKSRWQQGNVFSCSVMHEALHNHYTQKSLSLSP
assayText: bead ELISA, IgG on biotin-human CD137-Fc; decrease with free CD3 epsilon 62.5 pmol against free Fc 62.5 pmol

binder | unitString | Signal decrease
dBBDu186/L100 (antibody, V domains shown, Purified IgG; Fab genes of the panning output converted into IgG format) VH: QVQLVESGGGLVQPGRSLRLSCAASGFTFSNAWMHWVRQAPGKGLEWVAQIKDRSNQYATYYAPSVKGRFTISRDDSKNSIYLQMNSLKTEDTAVYYCHYVHYAQASTVLPAFGVDAWGQGTTVTVSS VL: DIVMTQSPLSLPVTPGEPASISCSASEELVHINRYIFLHWYQQKPGQAPRLLIYKVYNRFMGVPDRFSGSGSGTDFTLKISRVEAEDVGVYYCGQGSSVPFTFGQGTKLEIK | % | 13
dBBDu167/L094 (antibody, V domains shown, Purified IgG; Fab genes of the panning output converted into IgG format; also called dBBDu_167/dBBDu.L094) VH: QVQLVESGGGLVQPGRSLRLSCAASGFTFSNAWMHWVRQAPGKGLEWVAQIKDKGNLYAAYYAPSVKGRFTISRDDSKNSIYLQMNSLKTEDTAVYYCHYVHYASAGGGLPGFGVDAWGQGTTVTVSS VL: DIVMTQSPLSLPVTPGEPASISCYASEELLHINRHIYLHWYQQKPGQAPRLLIYKVYNRFNGVPDRFSGSGSGTDFTLKISRVEAEDVGVYYCAQGSSVPFTFGQGTKLEIK | % | 96.9
dBBDu186/L106 (antibody, V domains shown, Purified IgG; Fab genes of the panning output converted into IgG format) VH: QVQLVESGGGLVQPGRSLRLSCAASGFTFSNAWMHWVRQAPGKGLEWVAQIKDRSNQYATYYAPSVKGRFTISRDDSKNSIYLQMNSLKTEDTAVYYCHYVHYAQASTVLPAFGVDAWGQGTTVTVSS VL: DIVMTQSPLSLPVTPGEPASISCSTSEELLHINRFIFLHWYQQKPGQAPRLLIYKVANRFMGVPDRFSGSGSGTDFTLKISRVEAEDVGVYYCAQGSQVPFTFGQGTKLEIK | % | 68.7

Data origin, for the record: patent US20240270846A1
